Origin of measurements: patent US20230219978A1

target: BTK C481S (Homo sapiens, UniProt Q06187, C481S); assay: In vitro kinase activity assay (mobility shift assay), BTK C481S; settings: ATP 90 μM, reaction time 30 min
Sequence (Q06187 whole entry C481S): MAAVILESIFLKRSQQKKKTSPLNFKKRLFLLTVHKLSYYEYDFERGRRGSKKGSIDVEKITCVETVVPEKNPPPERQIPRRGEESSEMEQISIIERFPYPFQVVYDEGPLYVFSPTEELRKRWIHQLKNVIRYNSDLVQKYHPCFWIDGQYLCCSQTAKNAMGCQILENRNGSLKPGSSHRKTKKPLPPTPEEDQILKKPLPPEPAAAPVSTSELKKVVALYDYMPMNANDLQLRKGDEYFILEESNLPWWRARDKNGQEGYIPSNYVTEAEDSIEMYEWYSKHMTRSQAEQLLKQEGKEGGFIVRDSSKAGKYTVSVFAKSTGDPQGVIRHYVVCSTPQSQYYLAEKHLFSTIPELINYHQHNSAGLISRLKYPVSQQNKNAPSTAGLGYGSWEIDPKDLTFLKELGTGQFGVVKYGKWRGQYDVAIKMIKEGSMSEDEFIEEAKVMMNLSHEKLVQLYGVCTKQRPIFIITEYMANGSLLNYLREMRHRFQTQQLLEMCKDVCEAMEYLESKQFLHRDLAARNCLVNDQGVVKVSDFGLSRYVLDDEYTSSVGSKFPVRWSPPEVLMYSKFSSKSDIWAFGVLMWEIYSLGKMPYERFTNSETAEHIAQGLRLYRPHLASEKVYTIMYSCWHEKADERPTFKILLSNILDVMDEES
Collected pIC50 values appear next to each entry.
Units for pIC50: none; it is -log10 of a concentration expressed in mol/L.

Could you tell me which pIC50 is on file for C[C@H]1CNC(=O)c2cnn3cc(-c4ccccc4Cl)c(nc23)NCc2cc(F)cnc2O1 [Compound 4] ?
8.01

Consider the molecule shown here: C[C@H]1CNC(=O)c2cnn3cc(-c4ccc(Cl)cc4)c(nc23)NCc2cc(F)cnc2O1 [Compound 9] What is its recorded pIC50?
7.89

Fill blank: measured pIC50 of the molecule C[C@H]1CNC(=O)c2cnn3cc(-c4cnn(C)c4)c(nc23)NCc2cc(F)cnc2O1 [Compound 24] is ____.
6.40

Look at this molecule and give its reported pIC50. CC(C)OC(=O)Nc1ccc(-c2cn3ncc4c3nc2NCc2cc(F)cnc2O[C@@H](C)CNC4=O)c(Cl)c1 [Compound 45]
7.37

---

target: BTK C481S (Homo sapiens, UniProt Q06187, C481S); test: In vitro kinase activity assay (mobility shift assay), BTK C481S; conditions: ATP 90 μM, reaction time 30 min
parameter.measured: IC50 (nM)
The figure you give is taken to be in nM; do not add the unit.

Consider the reported IC50 for these molecules:
Which measured IC50 value corresponds to C[C@H]1CN(C)C(=O)c2cnn3c(N)c(-c4ccccc4)c(nc23)NCc2cc(F)cnc2O1 ?
52

What value of measured IC50 is listed for Nc1c(-c2ccccc2)c2nc3c(cnn13)C(=O)NCCOc1ncc(F)cc1CN2 ?
6.6

Name the reported IC50 value associated with the molecule C[C@H]1CNC(=O)c2cnn3c(N)c(-c4ccc(F)cc4)c(nc23)NCc2cc(F)cnc2O1
1.9

Can you look up the measured IC50 of C[C@H]1CNC(=O)c2cnn3cc(-c4cccc(Cl)c4)c(nc23)NCc2cc(F)cnc2O1 for me?
54.8

Find the recorded IC50 belonging to CNc1ccc(-c2c3nc4c(cnn4c2N)C(=O)NC[C@H](C)Oc2ncc(F)cc2CN3)cc1 and report it.
104

Form field: reported IC50 of Cc1ccc(-c2c3nc4c(cnn4c2N)C(=O)NC[C@H](C)Oc2ncc(F)cc2CN3)cc1
0.96

Query (molecule): Nc1c(-c2ccccc2)c2nc3c(cnn13)C(=O)N1CCCC1COc1ncc(F)cc1CN2 (stereo not shown) ; field requested: IC50
97

Given the molecule C[C@H]1CNC(=O)c2cnn3c(N)c(-c4ccc(Cl)cc4)c(nc23)NCc2cc(F)cnc2O1 , what is its reported IC50?
1.48

// lookup IC50 for C[C@H]1CNC(=O)c2cnn3c(N)c(-c4ccccc4F)c(nc23)NCc2cc(F)cnc2O1
1.45

I'd like to know its IC50. The molecule in question is C[C@H]1CNC(=O)c2cnn3cc(-c4ccccc4)c(nc23)NCc2cc(F)cnc2O1
31.3

More entries:
Could you tell me which IC50 is on file for C[C@H]1CNC(=O)c2cnn3c(N)c(-c4ccccc4)c(nc23)NCc2cc(F)cnc2O1 ?
0.96

---

molecular target: RET wt (Homo sapiens)
Sequence (P07949 29-1114): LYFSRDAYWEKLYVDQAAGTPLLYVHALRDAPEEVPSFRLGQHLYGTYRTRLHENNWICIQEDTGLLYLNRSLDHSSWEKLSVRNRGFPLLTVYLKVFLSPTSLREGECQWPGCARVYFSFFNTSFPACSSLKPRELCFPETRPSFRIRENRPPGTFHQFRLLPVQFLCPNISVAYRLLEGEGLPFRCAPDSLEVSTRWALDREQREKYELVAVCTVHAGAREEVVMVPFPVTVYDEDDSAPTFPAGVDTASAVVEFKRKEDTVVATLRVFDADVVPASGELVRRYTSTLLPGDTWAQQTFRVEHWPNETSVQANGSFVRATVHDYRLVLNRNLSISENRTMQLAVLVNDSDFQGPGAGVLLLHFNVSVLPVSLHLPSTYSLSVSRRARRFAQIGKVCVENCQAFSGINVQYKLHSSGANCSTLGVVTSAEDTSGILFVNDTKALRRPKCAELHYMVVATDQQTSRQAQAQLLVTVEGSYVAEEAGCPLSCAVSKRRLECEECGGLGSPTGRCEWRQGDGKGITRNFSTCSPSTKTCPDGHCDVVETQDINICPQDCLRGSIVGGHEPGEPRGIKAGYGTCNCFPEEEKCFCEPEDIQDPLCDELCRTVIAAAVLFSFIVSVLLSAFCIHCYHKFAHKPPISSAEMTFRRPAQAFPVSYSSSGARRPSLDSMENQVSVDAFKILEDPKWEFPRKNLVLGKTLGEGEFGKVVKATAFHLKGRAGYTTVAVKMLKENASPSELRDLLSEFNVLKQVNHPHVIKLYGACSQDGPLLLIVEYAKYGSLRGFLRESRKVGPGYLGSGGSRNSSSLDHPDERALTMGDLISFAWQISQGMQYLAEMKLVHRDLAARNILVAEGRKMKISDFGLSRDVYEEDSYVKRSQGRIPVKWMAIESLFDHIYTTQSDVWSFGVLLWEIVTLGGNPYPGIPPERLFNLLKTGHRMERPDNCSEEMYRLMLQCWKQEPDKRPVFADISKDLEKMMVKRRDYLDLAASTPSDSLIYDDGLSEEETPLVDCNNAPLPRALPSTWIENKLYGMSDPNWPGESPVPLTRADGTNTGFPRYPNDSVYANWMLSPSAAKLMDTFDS
Sorting guide: entries reporting IC50 beneath 20 nM go in the t pile, the rest go in the f pile.

These solved cases illustrate the format of a correct answer.
Determine whether this molecule shows IC50 lower than 20 nM (ties excluded): C[C@H]1CNC(=O)c2c(Br)nn3c(N)c(-c4ccccc4)c(nc23)NCc2cc(F)cnc2O1 [Example 76]
f

Quick check: IC50 of C[C@H]1CNC(=O)c2cnn3cc(C4=CCCC4)c(nc23)NCc2cc(F)cnc2O1 [Compound 41] under 20 nM?
t

More entries:
Could you please tell me whether IC50 recorded for Nc1c(-c2ccccc2)c2nc3c(cnn13)C(=O)N1CCCC1COc1ncc(F)cc1CN2 (stereo not drawn) [Example 79] is less than 20 nM?
f

Determine if CCOC(=O)Nc1c(F)cc(-c2c3nc4c(cnn4c2N)C(=O)NC[C@H](C)Oc2ncc(F)cc2CN3)cc1F [Example 70] shows IC50 strictly lower than 20 nM.
t

---

The following compounds are listed with their measured log10 IC50 values.
target: RET wt (Homo sapiens)
Scale: decimal log of IC50, IC50 in nM.

Kindly state the measured log10 IC50 obtained for COc1ccc(-c2c3nc4c(cnn4c2N)C(=O)NC[C@H](C)Oc2ncc(F)cc2CN3)cc1 with RET wt (Homo sapiens).
0.38

Lookup: log10 IC50 / RET wt (Homo sapiens) / CNc1c(-c2ccccc2)c2nc3c(cnn13)C(=O)NC[C@H](C)Oc1ncc(F)cc1CN2
2.11

Lookup: log10 IC50 / RET wt (Homo sapiens) / CC(C)OC(=O)Nc1ccc(-c2c3nc4c(cnn4c2N)C(=O)NC[C@H](C)Oc2ncc(F)cc2CN3)cc1
0.00

Given the entry C[C@H]1CNC(=O)c2cnn3cc(O)c(nc23)NCc2cc(F)cnc2O1 , what log10 IC50 was observed with RET wt (Homo sapiens)?
3.72

Give the reported log10 IC50 for CNc1ccc(-c2cn3ncc4c3nc2NCc2cc(F)cnc2O[C@@H](C)CNC4=O)c(Cl)c1 (system: RET wt (Homo sapiens)).
0.48

Continuing:
Enter reported log10 IC50 observed with RET wt (Homo sapiens) for C[C@H]1CNC(=O)c2cnn3cc(Nc4ccccc4)c(nc23)NCc2cc(F)cnc2O1
2.56

---

molecular target: SRC (Homo sapiens)
Sequence (P12931 whole entry): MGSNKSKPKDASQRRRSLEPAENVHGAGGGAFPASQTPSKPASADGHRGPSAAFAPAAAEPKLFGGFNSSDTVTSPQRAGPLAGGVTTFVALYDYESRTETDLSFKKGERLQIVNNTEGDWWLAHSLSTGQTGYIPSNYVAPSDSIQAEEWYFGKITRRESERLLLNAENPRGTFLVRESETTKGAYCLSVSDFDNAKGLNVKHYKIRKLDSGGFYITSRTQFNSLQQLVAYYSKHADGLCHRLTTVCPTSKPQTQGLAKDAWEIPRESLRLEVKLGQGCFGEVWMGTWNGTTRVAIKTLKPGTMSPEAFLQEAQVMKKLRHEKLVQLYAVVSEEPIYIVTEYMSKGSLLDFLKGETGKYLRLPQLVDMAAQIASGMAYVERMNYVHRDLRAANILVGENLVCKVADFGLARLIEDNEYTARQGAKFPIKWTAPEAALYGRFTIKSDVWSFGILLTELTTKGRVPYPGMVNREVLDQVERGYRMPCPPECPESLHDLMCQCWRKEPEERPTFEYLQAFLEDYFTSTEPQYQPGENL
parameter.measured: IC50 (nM)
Kindly provide the numeric value in nM only, without the unit symbol.

Below are worked cases with known answers.
If you can, please state the reported IC50 value of CC(C)OC(=O)Nc1ccc(-c2cn3ncc4c3nc2NCc2cc(F)cnc2O[C@@H](C)CNC4=O)cc1 [Compound 31] .
843

Recorded IC50 of COC(=O)Nc1ccc(-c2cn3ncc4c3nc2NCc2cc(F)cnc2O[C@@H](C)CNC4=O)cc1 [Compound 30] , please.
3110

I have this compound here, C[C@H]1CNC(=O)c2cnn3c(N)c(-c4ccc(NC(=O)OCC5CC5)cc4)c(nc23)NCc2cc(F)cnc2O1 [Example 63] , and I need its recorded IC50.
2.8

Switching to the query record.
Would you kindly share the measured IC50 for C[C@H]1CNC(=O)c2cnn3cc(-c4ccc(N5CCOC5=O)cc4Cl)c(nc23)NCc2cc(F)cnc2O1 [Compound 40] ?
105

---

target: RET G810R (Homo sapiens, UniProt P07949, G810R); test: In vitro kinase activity assay (mobility shift assay), RET G810R; conditions: ATP 201 μM, reaction time 4 h
Sequence (P07949 29-1114 G810R): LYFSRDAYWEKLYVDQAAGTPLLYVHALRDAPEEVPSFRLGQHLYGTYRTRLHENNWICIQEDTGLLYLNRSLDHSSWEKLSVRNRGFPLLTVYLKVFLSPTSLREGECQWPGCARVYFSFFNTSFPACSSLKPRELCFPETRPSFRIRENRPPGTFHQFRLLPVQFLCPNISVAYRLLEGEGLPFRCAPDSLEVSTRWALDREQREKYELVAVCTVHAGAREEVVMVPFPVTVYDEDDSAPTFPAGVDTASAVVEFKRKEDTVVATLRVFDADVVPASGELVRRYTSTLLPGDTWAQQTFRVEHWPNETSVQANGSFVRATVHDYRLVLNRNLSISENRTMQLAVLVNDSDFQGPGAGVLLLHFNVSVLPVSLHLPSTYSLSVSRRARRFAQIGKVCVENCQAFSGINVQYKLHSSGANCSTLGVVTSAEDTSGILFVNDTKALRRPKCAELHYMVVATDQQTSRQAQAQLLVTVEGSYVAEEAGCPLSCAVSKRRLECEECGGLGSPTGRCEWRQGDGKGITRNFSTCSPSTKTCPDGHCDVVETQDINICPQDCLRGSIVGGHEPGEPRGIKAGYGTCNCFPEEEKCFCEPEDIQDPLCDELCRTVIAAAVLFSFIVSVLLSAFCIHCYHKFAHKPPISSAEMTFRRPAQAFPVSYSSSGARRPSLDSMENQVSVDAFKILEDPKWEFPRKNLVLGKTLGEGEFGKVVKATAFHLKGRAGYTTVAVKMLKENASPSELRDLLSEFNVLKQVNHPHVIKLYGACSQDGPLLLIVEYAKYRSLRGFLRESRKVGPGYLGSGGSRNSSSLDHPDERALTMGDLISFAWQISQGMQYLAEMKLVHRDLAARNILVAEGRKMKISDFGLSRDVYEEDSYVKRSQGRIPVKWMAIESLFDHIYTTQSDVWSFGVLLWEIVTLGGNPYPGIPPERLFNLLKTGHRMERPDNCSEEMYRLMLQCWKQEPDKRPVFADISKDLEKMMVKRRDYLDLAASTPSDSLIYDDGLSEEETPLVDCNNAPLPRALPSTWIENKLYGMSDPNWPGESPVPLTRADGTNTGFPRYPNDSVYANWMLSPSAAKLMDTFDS
parameter.measured: IC50 (µM)
Unit µM implied. Number only.

Completed entries (count: 8):
I am curious: what IC50 value has been reported for COC(=O)Nc1ccc(-c2c3nc4c(cnn4c2N)C(=O)NC[C@H](C)Oc2ncc(F)cc2CN3)cc1 [Compound 49] ?
0.0093

What value of IC50 has been recorded for this entry: COC(=O)Nc1ccc(-c2cn3ncc4c3nc2NCc2cc(F)cnc2O[C@@H](C)CNC4=O)cc1 [Compound 30]
0.0151

Entry C[C@H]1CNC(=O)c2cnn3c(N)c(-c4cnn(C)c4)c(nc23)NCc2cc(F)cnc2O1 [Example 82] : reported IC50 = ?
0.138

Need IC50 of CC(C)OC(=O)Nc1ccc(-c2cn3ncc4c3nc2NCc2cc(F)cnc2O[C@@H](C)CNC4=O)c(Cl)c1 [Compound 45] , thanks.
0.07

Returns the measured IC50 for the input compound. Input: COC(=O)Nc1ccc(-c2cn3ncc4c3nc2NCc2cc(F)cnc2O[C@@H](C)CNC4=O)c(Cl)c1 [Compound 27]
0.0172

Find the recorded IC50 belonging to C[C@H]1CNC(=O)c2cnn3cc(-c4ccccc4)c(nc23)NCc2cc(F)cnc2O1 [Example 1] and report it.
0.0421

For COc1ccc(-c2c3nc4c(cnn4c2N)C(=O)NC[C@H](C)Oc2ncc(F)cc2CN3)cc1 [Example 59] , what is its reported IC50?
0.13

Quick one: IC50 of CC(C)OC(=O)Nc1ccc(-c2c3nc4c(cnn4c2N)C(=O)NC[C@H](C)Oc2ncc(F)cc2CN3)cc1 [Example 61] ?
0.0218

Now take the following compound into account.
// lookup IC50 for CCOC(=O)Nc1ccc(-c2c3nc4c(cnn4c2N)C(=O)NCCOc2ncc(F)cc2CN3)cc1 [Example 72]
0.014

---

Below are log10 of IC50 values measured for UniProtKB P07949.
Reminder: these figures are log10 of reported IC50, in nM before transformation.

The cases that follow already have their log10 of IC50 on record.
Which measured log10 of IC50 belongs to C[C@H]1CNC(=O)c2cnn3cc(-c4ccc(C(F)(F)F)cc4)c(nc23)NCc2cc(F)cnc2O1 [Compound 14] , tested on UniProtKB P07949?
2.10

Field: log10 of IC50 (UniProtKB P07949). Entry: C[C@H]1CNC(=O)c2cnn3c(N)c(-c4ccc5nc[nH]c5c4)c(nc23)NCc2cc(F)cnc2O1 [Compound 52]
0.73

Request - read-out log10 of IC50 | tested on UniProtKB P07949 | compound C[C@H]1CNC(=O)c2cnn3cc(-c4cccc(Cl)c4)c(nc23)NCc2cc(F)cnc2O1 [Compound 3]
1.34

API: value(readout=log10 of IC50, system=UniProtKB P07949) for record C[C@H]1CNC(=O)c2cnn3c(N)c(-c4cnn(C)c4)c(nc23)NCc2cc(F)cnc2O1 [Example 82]
0.04

***
Record lookup: for UniProtKB P07949, what log10 of IC50 belongs to C[C@H]1CNC(=O)c2cnn3cc(-c4ccc(NS(C)(=O)=O)cc4Cl)c(nc23)NCc2cc(F)cnc2O1 [Compound 44] ?
2.46

Give UniProtKB P07949 log10 of IC50 for C[C@H]1CNC(=O)c2cnn3cc(-c4ccc5[nH]ccc5c4Cl)c(nc23)NCc2cc(F)cnc2O1 [Compound 34]
0.73

Lab request: please report log10 of IC50 under test system UniProtKB P07949 for CCOC(=O)Nc1ccc(-c2c3nc4c(cnn4c2N)C(=O)NC[C@H](C)Oc2ncc(F)cc2CN3)cc1 [Example 62]
-0.59
